Origin of the recorded values: the array DNA melting data of Ke et al. (doi:10.1101/2024.01.08.574731)

Would you kindly list Tm for each of these sequences?
assay: melting temperature; fluorescence melt of hairpins on a sequencing array, two-state fit, raised by 9.35 °C to match UV melts; details: sodium 0.088 M
Give bare numbers, in °C.

Look over these answered cases.
| sequence-code | measurement-label | measured-number |
| --- | --- | --- |
| GTCCGACCGAAAGGTGAC (((..(((....)))))) | Tm | 36.6 |
| GACCTGCGAAAGCATGTC (((.(((....))).))) | Tm | 49.9 |
| GACGTACGAAAGTAGGTC (((.(((....))).))) | Tm | 52.6 |

# batch: return Tm for each of the 3 sequences below
1. GAGTCTACGAAAGTACTC (((..(((....))))))
2. GTCGTCGAAAGACCTGAC ((((((....)))..)))
3. GCGATCGAAAGATCACGC ((((((....)))..)))

[27.2, 31.7, 48.2]

====

assay: folding enthalpy; higher = less favourable; fluorescence melt of hairpins on a sequencing array, two-state fit; settings: sodium 0.088 M
measurement-label: folding enthalpy (kcal/mol)
One number for each entry, in kcal/mol.

| sequence-code | measured-number |
| --- | --- |
| GGGCGGGGAAACCCACCC (((.(((....))).))) | -40.7 |
| GCTGTGGGAAACTACGGC ((.((.(....).)).)) | -31.6 |
| GCCAGGTCGAAAGACGGC (((..(((....)))))) | -34.7 |
| GGGGGCGGAAACGTCCCC ((((.((....)).)))) | -22.5 |

Below are some sequences; for each one, tell me its folding enthalpy.
1. GTCTCGGGAAACTGAGGC (.(((.(....).))).)
2. GGGCAGAAATGCCC (((((....)))))

1. -30.8
2. -24

====

For each of the sequences below, state its Tm.
experiment: melting temperature; fluorescence melt of hairpins on a sequencing array, two-state fit, raised by 9.35 °C to match UV melts; details: sodium 0.088 M
One number for each entry, in °C.

| sequence-code | Tm / °C |
| --- | --- |
| GCAAACGAAAGTTGGTGC ((((((....)))..))) | 36.7 |

Hey, can you go through the list below and give me Tm for every item?
1. GTTCATGGAAACATGAGC (.(((((....))))).)
2. GCAGGGCGAAAGCCGGGC ((..(((....)))..))
3. GCCGGGCGAAAGCGGGGC (((..((....))..)))
4. GTGCGCCGAAAGGCCAC (((.(((....))))))
5. GATCGGCAACCCGATC ((((((....))))))

1. 43.9
2. 56.9
3. 63.3
4. 58.6
5. 54.4

====

assay: folding enthalpy; higher = less favourable; fluorescence melt of hairpins on a sequencing array, two-state fit; conditions: sodium 0.088 M
Record form. Attribute: folding enthalpy. Fill in for each entry.
Give me the value, and tack the unit on after it.

Here is how some sequences turned out for folding enthalpy.
| sequence-code | folding enthalpy |
| --- | --- |
| GTGGCCGGAAACGGCTGC (..((((....))))..) | -13 kcal/mol |
| GCTCTCGAAAGAGGCAGC ((((((....)))..))) | -15.5 kcal/mol |
| GATCAGCACCCTGATC ((((((....)))))) | -33.1 kcal/mol |
| GGCTGGGGAAACCCGGTC (.(.(((....))).).) | -28.5 kcal/mol |
| GGTCCCGGAAACGGGATC (.(((((....))))).) | -24.2 kcal/mol |
| GTGTAGGGAAACTTGCAC (((.(.(....).).))) | -17.7 kcal/mol |
| GAGCTAGGAAACTAGTTC ((.((((....)))).)) | -26.8 kcal/mol |
| GATTCCGAAAGGAATC ((((((....)))))) | -35.7 kcal/mol |

Required: folding enthalpy, one value per sequence below.
1. GATCACTCCGTGATC ((((((...))))))
2. GCGGCCACGAAAGTGCGC (((..(((....))))))
3. GAGCGGCGAAAGCCCCTC (((.(((....))).)))
4. CGGGTCGGAAACGATCCG (((.(((....))).)))
5. GGCTTAGGAAACTAAGCC (((((((....)))))))
6. GATCATACCAATGATC ((((((....))))))

["-44 kcal/mol", "-17.4 kcal/mol", "-14.1 kcal/mol", "-45.1 kcal/mol", "-48.5 kcal/mol", "-39.4 kcal/mol"]
